system.name: Human Factor D (Homo sapiens (Human))
Sequence (P00746 26-253): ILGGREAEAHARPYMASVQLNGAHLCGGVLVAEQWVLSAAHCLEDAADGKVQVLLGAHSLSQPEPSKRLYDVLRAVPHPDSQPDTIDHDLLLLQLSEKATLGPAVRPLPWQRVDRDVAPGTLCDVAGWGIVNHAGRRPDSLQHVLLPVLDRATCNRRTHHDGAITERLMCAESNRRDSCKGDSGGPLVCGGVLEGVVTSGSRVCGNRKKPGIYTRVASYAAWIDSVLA
method.summary: Human Factor D Assay
Assay type: biochemical
test.parameters: Human Factor D 80 nM, substrate Z-L-Lys-SBzl; read-out: IC50
property: IC50

What IC50 value was documented for this compound, NC(=O)c1nn(CC(=O)N2C[C@H](F)C[C@H]2C(=O)Nc2noc3cc(C(F)(F)F)ccc23)c2ccc(-c3ccnnc3)cc12 ?
> 10 µM

Any idea what IC50 was measured for CC(=O)c1cn(CC(=O)N2C[C@H](F)C[C@H]2C(=O)N[C@H]2CCC[C@@H]2OCc2ccccc2)c2ccc(-c3ccnnc3)cc12 ?
> 10 µM

So what's the measured IC50 for this one? NC(=O)c1nn(CC(=O)N2C[C@H](F)C[C@H]2C(=O)Nc2nnc(-c3ccccc3Cl)s2)c2ccc(-c3ccnnc3)cc12
> 10 µM

IC50 for CC(=O)c1cn(CC(=O)N2C[C@H](F)C[C@H]2C(=O)Nc2cccc(Cl)c2C(F)(F)F)c2ccc(-c3ccnnc3)cc12 ?
> 10 µM

// query IC50 value for entry CC(=O)c1cn(CC(=O)N2C[C@H](F)C[C@H]2C(=O)Nc2cccc(-c3ccccc3Cl)c2F)c2ccc(N3CCN(S(C)(=O)=O)CC3)cc12
< 1 µM

I would be grateful if you could share the reported IC50 for CC(=O)c1cn(CC(=O)N2C[C@H](F)C[C@H]2C(=O)Nc2cccc(-c3ccccc3Cl)c2F)c2ccc(-c3cnc(N4CCCC4)nc3)cc12 .
< 1 µM
